molecular target: T1, recombinant human CD3ε/δ heterodimer SEED Fc fusion protein (human, UniProt P07766 23-126; P04234 22-105); experiment: biolayer interferometry, TCE immobilized
T1 construct: not shown: SEED Fc arm, not specified
T1 sequence (P07766 23-126, stated change not applied, chain 1 of 2): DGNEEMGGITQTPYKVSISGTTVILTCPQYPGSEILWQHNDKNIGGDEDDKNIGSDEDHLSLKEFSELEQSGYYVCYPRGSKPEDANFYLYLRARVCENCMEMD
T1 sequence (P04234 22-105, stated change not applied, chain 2 of 2): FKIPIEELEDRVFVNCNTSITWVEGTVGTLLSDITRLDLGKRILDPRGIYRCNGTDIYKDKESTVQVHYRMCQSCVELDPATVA

| Binder | Kd |
| --- | --- |
| 1F3.5 VL1.01-VH1.02 (CD3-binding bispecific TCE of Table 30) (bispecific antibody, V domains shown, CD3 Fab arm only) VH: EVQLVESGGGLVQPGGSLKLSCAASGFTFNTYAMNWVRQASGKGLEWVGRIRSKYNNYATYYADSVKGRFTISRDDSKNTAYLQMNSLKTEDTAVYYCVRHGNFGNSYVSWFAYWGQGTMVTVSS VL: QTVVTQEPSLTVSPGGTVTLTCASSTGAVTTSNYANWVQQKPGQAPRALIGGTNKRAPGTPARFSGSLLGGKAALTLSGVQPEDEAEYYCALWYSNLWVFGGGTKLTVLG | 47.1 nM |
| 1F3.5 VL1.00-VH1.03 (high) (CD3-binding bispecific TCE of Table 30) (bispecific antibody, V domains shown, CD3 Fab arm only; VL1.00 read as the parental 1F3.5 light chain; also called 1F3.5-VH1.03) VH: EVQLVESGGGLVQPGGSLKLSCAASGFTFNTYAMNWVRQASGKGLEWVGRIRSKYNNYATYYADSVKGRFTISRDDSKNTLYLQMNSLKTEDTAVYYCVRHGNFGASYVSWFAYWGQGTMVTVSS VL: QAVVTQEPSLTVSPGGTVTLTCRSSTGAVTTSNYANWVQQKPGQAPRGLIGGTNKRAPGTPARFSGSLLGGKAALTLSGVQPEDEAEYYCALWYSNLWVFGGGTKLTVLG | 4.6 nM |
| 1F3.5 VL1.01-VH1.01 (low) (CD3-binding bispecific TCE of Table 30) (bispecific antibody, V domains shown, CD3 Fab arm only; also called 1F3.5-VH1.01-VL1.01) VH: EVQLVESGGGLVQPGGSLKLSCAASGFTFNTYAMNWVRQASGKGLEWVGRIRSKYNNYATYYADSVKGRFTISRDDSKNTLYLQMNSLKTEDTAVYYCVRHGNFGNSYVSWFAYWGQGTMVTVSS VL: QTVVTQEPSLTVSPGGTVTLTCASSTGAVTTSNYANWVQQKPGQAPRALIGGTNKRAPGTPARFSGSLLGGKAALTLSGVQPEDEAEYYCALWYSNLWVFGGGTKLTVLG | 42 nM |
